- measured_target: human H3R (Homo sapiens (Human), UniProt Q9Y5N1)
- Sequence (Q9Y5N1 whole entry): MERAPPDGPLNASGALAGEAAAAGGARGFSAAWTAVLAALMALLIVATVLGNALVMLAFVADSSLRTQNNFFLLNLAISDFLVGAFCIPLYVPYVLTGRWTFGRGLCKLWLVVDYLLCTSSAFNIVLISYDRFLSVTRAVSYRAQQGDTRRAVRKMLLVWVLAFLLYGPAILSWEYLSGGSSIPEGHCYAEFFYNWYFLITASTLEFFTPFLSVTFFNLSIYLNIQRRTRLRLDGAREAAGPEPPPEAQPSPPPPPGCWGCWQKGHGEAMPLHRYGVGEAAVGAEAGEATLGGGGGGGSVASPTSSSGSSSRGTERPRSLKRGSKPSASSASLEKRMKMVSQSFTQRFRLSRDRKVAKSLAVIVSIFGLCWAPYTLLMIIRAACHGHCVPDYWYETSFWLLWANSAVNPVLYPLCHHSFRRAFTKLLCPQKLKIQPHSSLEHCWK
- experimental_protocol: GTPγS functional assay, membranes from HEK cells expressing the human H3R
- Type: biochemical
- assay_setup: GTPγS agonist potency
Where a name gives a salt, the structure may show the parent alone.
The entries below come with measured pEC50 values attached.
Friendly reminder that pEC50 comes from taking -log10 of the concentration in mol/L.

# compound, measured_target, pEC50
records = [
    ("CN(C)CCNc1ccnc(N)n1 [Example 2, 2,2,2-trifluoroacetate]", "human H3R (Homo sapiens (Human), UniProt Q9Y5N1)", 6.28),
    ("Cl.Cl.Nc1nccc(N[C@@H]2CCNC2)n1 [Example 18, dihydrochloride]", "human H3R (Homo sapiens (Human), UniProt Q9Y5N1)", 5.60),
    ("Nc1nccc(NC2CNC2)n1 [Example 22, trihydrochloride]", "human H3R (Homo sapiens (Human), UniProt Q9Y5N1)", 6.34),
    ("Nc1nccc(N2CCC3(CC2)CNC3)n1 [Example 23, trihydrochloride]", "human H3R (Homo sapiens (Human), UniProt Q9Y5N1)", 6.29),
    ("CC(C)(C)OC(=O)N1CCC(CNc2ccnc(N)n2)CC1", "human H3R (Homo sapiens (Human), UniProt Q9Y5N1)", 5.32),
    ("Nc1nccc(N2CCCN(Cc3ccccc3)CCC2)n1", "human H3R (Homo sapiens (Human), UniProt Q9Y5N1)", 6.94),
]

Record NCCNc1ccnc(N)n1.O=C(O)C(O)C(O)C(=O)O has human H3R (Homo sapiens (Human), UniProt Q9Y5N1) pEC50 equal to 6.29

Simply: NCCCNc1ccnc(N)n1 [Example 6, dihydrochloride] , human H3R (Homo sapiens (Human), UniProt Q9Y5N1), pEC50 = 6.27

----------
- measured_target: human histamine H3 receptor (Homo sapiens (Human), UniProt Q9Y5N1)
- Sequence (Q9Y5N1 whole entry): as above
- experimental_protocol: FLIPR functional assay (Ca2+, HEK-293 cells coexpressing Gαqi5), human H3 receptor
- assay_setup: FLIPR agonist potency
Where a name gives a salt, the structure may show the parent alone.
recorded_metric: EC50 (nM)
# unit: nM | format: bare number

# molecule, measured_target, units_symbol, observed_value
rows = [
    ("CC(C)(C)OC(=O)N1CCC(CNc2ccnc(N)n2)CC1 [Example 15]", "human histamine H3 receptor (Homo sapiens (Human), UniProt Q9Y5N1)", "nM", 43.6),
]

EC50 reported for this molecule CC(C)(C)OC(=O)N1CCN(c2ccnc(N)n2)CC1 [Example 14] : 316

Consider NCCCNc1ccnc(N)n1 [Example 6, dihydrochloride] . Its measured EC50 is 13.4

----------
- measured_target: UniProt Q9QYN8
- Sequence (Q9QYN8 whole entry): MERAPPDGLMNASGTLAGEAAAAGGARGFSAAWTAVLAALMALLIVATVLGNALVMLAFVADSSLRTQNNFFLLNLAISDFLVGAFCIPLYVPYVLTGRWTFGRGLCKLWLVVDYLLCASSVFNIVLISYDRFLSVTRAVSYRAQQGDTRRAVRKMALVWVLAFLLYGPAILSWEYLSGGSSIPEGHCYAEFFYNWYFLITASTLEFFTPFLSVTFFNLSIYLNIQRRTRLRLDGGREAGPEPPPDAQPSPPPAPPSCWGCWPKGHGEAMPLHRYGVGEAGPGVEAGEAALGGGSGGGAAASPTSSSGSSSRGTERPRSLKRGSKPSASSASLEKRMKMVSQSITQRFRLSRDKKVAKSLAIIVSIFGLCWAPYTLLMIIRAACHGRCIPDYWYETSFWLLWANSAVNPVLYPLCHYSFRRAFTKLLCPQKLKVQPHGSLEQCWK
- experimental_protocol: FLIPR functional assay (Ca2+, HEK-293 cells coexpressing Gαqi5), rat H3 receptor
- assay_setup: FLIPR agonist potency
recorded_metric: pEC50
Units for pEC50: none; it is -log10 of a concentration expressed in mol/L.

Record excerpt, results attached:
# compound, pEC50
rows = [
    ("NCCNc1ccnc(N)n1.O=C(O)C(O)C(O)C(=O)O", 8.26),
    ("Cl.Cl.Nc1nccc(N2CCC(N)CC2)n1 [Example 20, dihydrochloride]", 7.29),
    ("Cl.Cl.Nc1nccc(N[C@@H]2CCNC2)n1 [Example 18, dihydrochloride]", 7.13),
]

Lab note: next compound to report on.
// pEC50 value for CC(C)(C)OC(=O)N1CC[C@@H](Nc2ccnc(N)n2)C1 : 5.32
